Cited source: ChEMBL document CHEMBL1143494

biological target: Stromelysin-1 (Homo sapiens)
Sequence (P08254 whole entry): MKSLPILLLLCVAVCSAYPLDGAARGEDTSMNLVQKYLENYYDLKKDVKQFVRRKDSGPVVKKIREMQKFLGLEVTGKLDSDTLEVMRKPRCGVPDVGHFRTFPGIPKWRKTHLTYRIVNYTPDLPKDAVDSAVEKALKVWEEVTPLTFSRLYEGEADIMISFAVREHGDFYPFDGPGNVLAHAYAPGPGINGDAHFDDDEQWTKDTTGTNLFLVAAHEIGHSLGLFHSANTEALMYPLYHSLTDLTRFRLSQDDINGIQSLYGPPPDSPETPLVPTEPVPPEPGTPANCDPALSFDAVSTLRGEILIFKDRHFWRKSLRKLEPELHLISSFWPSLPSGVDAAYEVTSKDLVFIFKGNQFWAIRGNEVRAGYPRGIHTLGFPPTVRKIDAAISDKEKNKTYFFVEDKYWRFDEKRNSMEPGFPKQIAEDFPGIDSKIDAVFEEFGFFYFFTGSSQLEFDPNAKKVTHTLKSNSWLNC
pIC50: −log10 of the molar value.
Readout: pIC50

INSERT INTO assay_data (smiles_repr, tested_target, readout_value) VALUES
  ('CCc1ccc2oc(C(=O)Nc3ccc(-c4ccc(S(=O)(=O)N[C@H](C(=O)O)C(C)C)cc4)cc3)c(C)c2c1OC', 'Stromelysin-1 (Homo sapiens)', 6.25),
  ('CCc1ccc2oc(C(=O)Nc3ccc(-c4ccc(S(=O)(=O)N[C@H](C(=O)O)C(C)C)cc4)cc3)c(C)c2c1O', 'Stromelysin-1 (Homo sapiens)', 6.31),
  ('COc1c(Br)ccc2oc(C(=O)Nc3ccc(-c4ccc(S(=O)(=O)N[C@H](C(=O)O)C(C)C)cc4)cc3)c(C)c12', 'Stromelysin-1 (Homo sapiens)', 6.84),
  ('COc1c(I)ccc2oc(C(=O)Nc3ccc(-c4ccc(S(=O)(=O)N[C@H](C(=O)O)C(C)C)cc4)cc3)c(C)c12', 'Stromelysin-1 (Homo sapiens)', 5.97),
  ('Cc1c(C(=O)Nc2ccc(-c3ccc(S(=O)(=O)N[C@H](C(=O)O)C(C)C)cc3)cc2)oc2ccc(Cl)c(OC(C)C)c12', 'Stromelysin-1 (Homo sapiens)', 5.96),
  ('COc1c(C)ccc2oc(C(=O)Nc3ccc(-c4ccc(S(=O)(=O)N[C@H](C(=O)O)C(C)C)cc4)cc3)c(C)c12', 'Stromelysin-1 (Homo sapiens)', 6.35);

* * *

Target: A disintegrin and metalloproteinase with thrombospondin motifs 4 (Homo sapiens, UniProt O75173)
Sequence (O75173 whole entry): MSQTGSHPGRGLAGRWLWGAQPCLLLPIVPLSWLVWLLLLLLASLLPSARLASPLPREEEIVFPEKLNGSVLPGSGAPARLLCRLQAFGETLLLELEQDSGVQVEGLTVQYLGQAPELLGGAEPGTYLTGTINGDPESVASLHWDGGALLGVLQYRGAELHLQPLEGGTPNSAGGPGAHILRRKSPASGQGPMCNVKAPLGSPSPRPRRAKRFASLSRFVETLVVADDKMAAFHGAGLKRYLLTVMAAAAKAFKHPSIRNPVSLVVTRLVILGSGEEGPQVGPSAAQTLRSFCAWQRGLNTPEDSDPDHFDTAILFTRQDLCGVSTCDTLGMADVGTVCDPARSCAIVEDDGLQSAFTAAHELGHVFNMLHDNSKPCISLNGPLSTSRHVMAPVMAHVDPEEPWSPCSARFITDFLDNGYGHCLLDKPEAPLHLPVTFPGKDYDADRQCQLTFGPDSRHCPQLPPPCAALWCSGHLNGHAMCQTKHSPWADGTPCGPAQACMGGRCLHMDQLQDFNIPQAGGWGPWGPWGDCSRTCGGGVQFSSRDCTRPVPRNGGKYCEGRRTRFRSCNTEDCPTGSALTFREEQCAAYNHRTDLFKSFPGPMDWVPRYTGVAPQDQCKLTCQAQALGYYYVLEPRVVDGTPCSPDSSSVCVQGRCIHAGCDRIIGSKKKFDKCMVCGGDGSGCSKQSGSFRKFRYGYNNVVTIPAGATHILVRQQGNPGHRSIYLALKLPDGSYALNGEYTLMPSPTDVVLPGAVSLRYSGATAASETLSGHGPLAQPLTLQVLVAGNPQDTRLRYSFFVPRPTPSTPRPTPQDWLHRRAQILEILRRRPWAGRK
Assay: Inhibitory concentration against Aggrecanase 1
Readout: IC50 (µM)

INSERT INTO assay_data (smiles_repr, comparative_sign, readout_value) VALUES
  ('Cc1c(C(=O)Nc2ccc(-c3ccc(S(=O)(=O)N[C@H](C(=O)O)C(C)C)cc3)cc2)oc2ccc(Cl)c(OC(C)C)c12', '=', 14.3),
  ('CCc1ccc2oc(C(=O)Nc3ccc(-c4ccc(S(=O)(=O)N[C@H](C(=O)O)C(C)C)cc4)cc3)c(C)c2c1O', '=', 4.4),
  ('COc1c(I)ccc2oc(C(=O)Nc3ccc(-c4ccc(S(=O)(=O)N[C@H](C(=O)O)C(C)C)cc4)cc3)c(C)c12', '=', 15),
  ('CCc1ccc2oc(C(=O)Nc3ccc(-c4ccc(S(=O)(=O)N[C@H](C(=O)O)C(C)C)cc4)cc3)c(C)c2c1OC', '>', 15),
  ('COc1c(Br)ccc2oc(C(=O)Nc3ccc(-c4ccc(S(=O)(=O)N[C@H](C(=O)O)C(C)C)cc4)cc3)c(C)c12', '=', 5.6),
  ('COc1c(C)ccc2oc(C(=O)Nc3ccc(-c4ccc(S(=O)(=O)N[C@H](C(=O)O)C(C)C)cc4)cc3)c(C)c12', '=', 8.6);

* * *

Target protein (sequence): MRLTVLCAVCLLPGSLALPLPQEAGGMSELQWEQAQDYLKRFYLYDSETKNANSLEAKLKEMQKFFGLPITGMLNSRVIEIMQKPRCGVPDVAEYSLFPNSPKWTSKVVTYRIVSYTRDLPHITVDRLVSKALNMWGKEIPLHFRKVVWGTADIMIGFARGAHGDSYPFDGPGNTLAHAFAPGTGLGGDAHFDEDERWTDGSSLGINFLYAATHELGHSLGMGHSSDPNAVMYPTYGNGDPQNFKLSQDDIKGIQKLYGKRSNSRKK
pIC50: −log10 of the molar value.
Everything with pIC50 lower than 6 is no (0); everything else, including exactly 6, is yes (1).

INSERT INTO results (smiles_repr, label) VALUES
  ('Cc1c(C(=O)Nc2ccc(-c3ccc(S(=O)(=O)N[C@H](C(=O)O)C(C)C)cc3)cc2)oc2ccc(Cl)c(OC(C)C)c12', 'no (0)'),
  ('CCc1ccc2oc(C(=O)Nc3ccc(-c4ccc(S(=O)(=O)N[C@H](C(=O)O)C(C)C)cc4)cc3)c(C)c2c1O', 'yes (1)'),
  ('COc1c(C)ccc2oc(C(=O)Nc3ccc(-c4ccc(S(=O)(=O)N[C@H](C(=O)O)C(C)C)cc4)cc3)c(C)c12', 'yes (1)'),
  ('COc1c(I)ccc2oc(C(=O)Nc3ccc(-c4ccc(S(=O)(=O)N[C@H](C(=O)O)C(C)C)cc4)cc3)c(C)c12', 'no (0)');

* * *

biological target: UniProt:P14780; assay: Percent inhibition at 25 uM against MMP-9
Sequence (P14780 whole entry): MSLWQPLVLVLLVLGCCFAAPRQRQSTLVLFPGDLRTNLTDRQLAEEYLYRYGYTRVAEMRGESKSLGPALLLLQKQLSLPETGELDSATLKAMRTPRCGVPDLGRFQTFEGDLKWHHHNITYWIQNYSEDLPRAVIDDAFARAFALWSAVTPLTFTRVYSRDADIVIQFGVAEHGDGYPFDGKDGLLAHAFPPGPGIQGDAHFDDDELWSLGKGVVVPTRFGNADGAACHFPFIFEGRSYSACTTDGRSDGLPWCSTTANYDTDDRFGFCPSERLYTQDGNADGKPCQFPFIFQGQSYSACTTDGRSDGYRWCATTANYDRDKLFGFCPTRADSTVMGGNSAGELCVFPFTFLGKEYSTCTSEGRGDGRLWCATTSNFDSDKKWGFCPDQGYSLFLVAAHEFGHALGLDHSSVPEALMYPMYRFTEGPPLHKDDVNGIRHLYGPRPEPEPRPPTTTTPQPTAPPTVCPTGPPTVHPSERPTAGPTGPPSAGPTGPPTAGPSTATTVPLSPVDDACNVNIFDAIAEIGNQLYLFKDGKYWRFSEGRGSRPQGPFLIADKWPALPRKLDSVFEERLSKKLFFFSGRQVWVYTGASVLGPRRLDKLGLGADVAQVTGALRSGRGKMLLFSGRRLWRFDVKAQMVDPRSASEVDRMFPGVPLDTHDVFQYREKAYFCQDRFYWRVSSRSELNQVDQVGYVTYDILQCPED
Readout: inhibition (%)

INSERT INTO results (smiles_repr, readout, readout_value) VALUES
  ('COc1c(I)ccc2oc(C(=O)Nc3ccc(-c4ccc(S(=O)(=O)N[C@H](C(=O)O)C(C)C)cc4)cc3)c(C)c12', 'inhibition', 51),
  ('CCc1ccc2oc(C(=O)Nc3ccc(-c4ccc(S(=O)(=O)N[C@H](C(=O)O)C(C)C)cc4)cc3)c(C)c2c1O', 'inhibition', 55),
  ('COc1c(Br)ccc2oc(C(=O)Nc3ccc(-c4ccc(S(=O)(=O)N[C@H](C(=O)O)C(C)C)cc4)cc3)c(C)c12', 'inhibition', 66),
  ('COc1c(C)ccc2oc(C(=O)Nc3ccc(-c4ccc(S(=O)(=O)N[C@H](C(=O)O)C(C)C)cc4)cc3)c(C)c12', 'inhibition', 76),
  ('Cc1c(C(=O)Nc2ccc(-c3ccc(S(=O)(=O)N[C@H](C(=O)O)C(C)C)cc3)cc2)oc2ccc(Cl)c(OC(C)C)c12', 'inhibition', 51),
  ('CCc1ccc2oc(C(=O)Nc3ccc(-c4ccc(S(=O)(=O)N[C@H](C(=O)O)C(C)C)cc4)cc3)c(C)c2c1OC', 'inhibition', 64);

* * *

target: Disintegrin and metalloproteinase domain-containing protein 17 (Homo sapiens)
Sequence (P78536 whole entry, the tested form may be a part): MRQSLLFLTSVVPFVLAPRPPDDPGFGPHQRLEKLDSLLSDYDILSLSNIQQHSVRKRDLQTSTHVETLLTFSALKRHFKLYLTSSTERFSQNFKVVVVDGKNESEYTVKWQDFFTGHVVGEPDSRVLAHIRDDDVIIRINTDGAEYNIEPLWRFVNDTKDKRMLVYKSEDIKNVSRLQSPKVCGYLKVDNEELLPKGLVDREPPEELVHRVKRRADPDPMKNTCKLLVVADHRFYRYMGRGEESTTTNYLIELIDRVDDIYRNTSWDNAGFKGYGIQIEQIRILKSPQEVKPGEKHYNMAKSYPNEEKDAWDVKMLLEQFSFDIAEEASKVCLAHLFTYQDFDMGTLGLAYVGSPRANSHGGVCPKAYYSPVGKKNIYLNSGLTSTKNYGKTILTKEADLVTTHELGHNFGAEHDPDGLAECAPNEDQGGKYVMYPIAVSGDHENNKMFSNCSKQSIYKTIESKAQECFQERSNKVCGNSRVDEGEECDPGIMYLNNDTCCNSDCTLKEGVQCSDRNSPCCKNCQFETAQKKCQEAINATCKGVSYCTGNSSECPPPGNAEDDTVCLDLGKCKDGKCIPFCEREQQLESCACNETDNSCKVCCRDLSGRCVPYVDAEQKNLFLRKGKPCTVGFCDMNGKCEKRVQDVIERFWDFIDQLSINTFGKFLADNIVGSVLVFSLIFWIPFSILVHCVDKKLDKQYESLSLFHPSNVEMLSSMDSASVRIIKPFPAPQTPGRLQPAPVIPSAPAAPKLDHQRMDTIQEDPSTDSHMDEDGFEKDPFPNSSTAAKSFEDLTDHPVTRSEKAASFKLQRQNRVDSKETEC
Readout: IC50 (µM)

INSERT INTO results (smiles_repr, readout, readout_value) VALUES
  ('COc1c(Br)ccc2oc(C(=O)Nc3ccc(-c4ccc(S(=O)(=O)N[C@H](C(=O)O)C(C)C)cc4)cc3)c(C)c12', 'IC50', 34);

* * *

Each entry below carries its measured pIC50, system: Matrix metalloproteinase-14 (Homo sapiens, UniProt P50281).
pIC50: −log10 of the molar value.
Readout: pIC50

INSERT INTO measurements (smiles_repr, readout_value) VALUES
  ('COc1c(I)ccc2oc(C(=O)Nc3ccc(-c4ccc(S(=O)(=O)N[C@H](C(=O)O)C(C)C)cc4)cc3)c(C)c12', 4.52),
  ('CCc1ccc2oc(C(=O)Nc3ccc(-c4ccc(S(=O)(=O)N[C@H](C(=O)O)C(C)C)cc4)cc3)c(C)c2c1OC', 4.52),
  ('CCc1ccc2oc(C(=O)Nc3ccc(-c4ccc(S(=O)(=O)N[C@H](C(=O)O)C(C)C)cc4)cc3)c(C)c2c1O', 4.80),
  ('COc1c(C)ccc2oc(C(=O)Nc3ccc(-c4ccc(S(=O)(=O)N[C@H](C(=O)O)C(C)C)cc4)cc3)c(C)c12', 4.82),
  ('Cc1c(C(=O)Nc2ccc(-c3ccc(S(=O)(=O)N[C@H](C(=O)O)C(C)C)cc3)cc2)oc2ccc(Cl)c(OC(C)C)c12', 4.30),
  ('COc1c(Br)ccc2oc(C(=O)Nc3ccc(-c4ccc(S(=O)(=O)N[C@H](C(=O)O)C(C)C)cc4)cc3)c(C)c12', 4.82);
